Target: human amylin receptor (hAmyR3) (Homo sapiens, UniProt O60896+P30988)
Construct: host or cells: BHK cells (Hollex-1 line: human calcitonin receptor (a) + CRE-Luc), further transfected with human RAMP3
Sequence (P30988 25-474): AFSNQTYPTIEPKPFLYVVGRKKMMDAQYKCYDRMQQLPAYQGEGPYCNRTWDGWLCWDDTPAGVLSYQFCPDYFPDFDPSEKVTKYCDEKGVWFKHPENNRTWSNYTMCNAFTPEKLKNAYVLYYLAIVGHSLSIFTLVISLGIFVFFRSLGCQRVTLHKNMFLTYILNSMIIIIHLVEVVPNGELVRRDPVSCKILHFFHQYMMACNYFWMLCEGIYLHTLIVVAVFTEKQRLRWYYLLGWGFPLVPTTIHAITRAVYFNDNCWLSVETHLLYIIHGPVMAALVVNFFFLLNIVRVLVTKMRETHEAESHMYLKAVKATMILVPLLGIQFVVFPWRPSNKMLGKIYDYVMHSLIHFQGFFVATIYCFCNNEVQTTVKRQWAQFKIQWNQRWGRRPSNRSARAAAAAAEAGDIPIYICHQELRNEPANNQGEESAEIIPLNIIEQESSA
Sequence (O60896 24-148): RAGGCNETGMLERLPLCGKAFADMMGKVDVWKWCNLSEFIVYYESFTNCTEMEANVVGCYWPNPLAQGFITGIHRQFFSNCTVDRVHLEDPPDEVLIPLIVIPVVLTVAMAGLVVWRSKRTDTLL
Assay: Human amylin receptor in vitro potency assay (CRE-luciferase reporter, BHK cells);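 further: BHK cells expressing human calcitonin receptor plus RAMP3 (amylin-3 receptor) with a CRE-luciferase reporter, agonist activity read as luminescence from cAMP-driven transcription, 7-point serial dilutions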
Type: cell-based
Conditions: Table 4a; BHK hAmyR3/CRE-Luc cells, 3 hours; read-out: Human AmyR3 potency [EC50 (pM)]
Starred links: 1 amine or outer side, 2 acyl side, 3 side chain; linkers in the order of their positions; H or OH if unused. Non-standard residues stand in square brackets, D forms with d. Groups on a side chain read outwards from the residue. *: point of attachment. C20 diacid = O=C(O)CCCCCCCCCCCCCCCCCCC(=O)*; C18 diacid = O=C(O)CCCCCCCCCCCCCCCCC(=O)*; C16 diacid = O=C(O)CCCCCCCCCCCCCCC(=O)*; γGlu = O=C(O)[C@H](CCC(=O)[*:2])N[*:1]; C14 diacid = O=C(O)CCCCCCCCCCCCC(=O)*; εLys = N[C@@H](CCCCN[*:1])C(=O)[*:2]; Trx = NC[C@H]1CC[C@H](C(=O)O)CC1; AEEA = NCCOCCOCC(=O)O; Aib = CC(C)(N)C(=O)O
Give measured EC50 for each item. Keep answers brief.
Numbers only, in pM.

As a guide, the following entries are already answered.
[
  {
    "substance": "H-H[Aib]EGTFTSDVSSYLEGQAAK([AEEA-AEEA-γGlu-C18 diacid])EFIAWLVRGRGQEPGQAPEASELSTAALGRLSAELHELATLPRTETGSGSP-NH2 [Compound 0026]",
    "system": "human amylin receptor (hAmyR3) (Homo sapiens, UniProt O60896+P30988)",
    "unit.annotation": "pM",
    "EC50": 14
  },
  {
    "substance": "H-HWEGTFTSDVSSYLEEQAARK([εLys-AEEA-AEEA-γGlu-Trx-C20 diacid])FIEWLVRGRGEASELSTAALGRLSAELHELATLPRTETGSGSP-NH2 [Compound 0437]",
    "system": "human amylin receptor (hAmyR3) (Homo sapiens, UniProt O60896+P30988)",
    "unit.annotation": "pM",
    "EC50": 11.8
  },
  {
    "substance": "H-H[Aib]EGTFTSDVSSYLEEQAARK([AEEA-AEEA-γGlu-C18 diacid])FIEWLVRGK([AEEA-AEEA-γGlu-C18 diacid])GEGGEASELSTAALGRLSAELHELATLPRTETGSGSP-NH2 [Compound 0089]",
    "system": "human amylin receptor (hAmyR3) (Homo sapiens, UniProt O60896+P30988)",
    "unit.annotation": "pM",
    "EC50": 65.5
  }
]

State the recorded EC50 for every item in the following list.
1. H-H[Aib]EGTFTSDVSSYLEK([AEEA-AEEA-γGlu-C16 diacid])QAAREFIAWLVRGRGGGGGASELSTAALGRLSK([AEEA-AEEA-γGlu-C16 diacid])ELHELATLPRTETGSGSP-NH2 [Compound 0294]
2. H-H[Aib]EGTFTSDVSSYLEGQAAK([εLys-AEEA-AEEA-γGlu-C18 diacid])EFIAWLVRGRGGGEASELSTAALGRLSAELHELATLPRTETGSGSP-NH2 [Compound 0044]
3. H-H[Aib]EGTFTSDK([AEEA-AEEA-γGlu-C16 diacid])SSYLEEQAAREFIAWLVRGRGGGGGEASELSTAALGRLSAELHELATLK([AEEA-AEEA-γGlu-C16 diacid])RTETGSGSP-NH2 [Compound 0261]
4. H-HGEGTFTSDVSSYLEEQAARK([AEEA-AEEA-γGlu-C14 diacid])FIEWLVRGK([AEEA-AEEA-γGlu-C14 diacid])GEASELSTAALGRLSAELHELATLPRTETGSGSP-NH2 [Compound 0039]
5. H-H[Aib]EGTFTSDK([AEEA-AEEA-γGlu-C16 diacid])SSYLEEQAAREFIAWLVRGRGGGGGEASELSTAALGRLSAELHK([AEEA-AEEA-γGlu-C16 diacid])LATLPRTETGSGSP-NH2 [Compound 0259]
6. H-H[Aib]EGTFTSDVSSYLEEQAARK([AEEA-AEEA-γGlu-C16 diacid])FIAWLVRGRGGGGGASELSTAALGRLSK([AEEA-AEEA-γGlu-C16 diacid])ELHELATLPRTETGSGSP-NH2 [Compound 0296]

1: 34.3; 2: 9.1; 3: 23.9; 4: 59.5; 5: 12; 6: 29.9
